Target sequence: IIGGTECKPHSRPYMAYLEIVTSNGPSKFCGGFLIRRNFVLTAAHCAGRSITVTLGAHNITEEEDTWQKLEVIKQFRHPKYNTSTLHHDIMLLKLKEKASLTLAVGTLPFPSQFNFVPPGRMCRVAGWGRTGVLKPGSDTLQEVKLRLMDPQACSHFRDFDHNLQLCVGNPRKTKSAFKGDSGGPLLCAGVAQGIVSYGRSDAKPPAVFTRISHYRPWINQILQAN
Endpoint Label: IC50 (nM)
# unit: nM | format: bare number

-- ask For the compound CC(C(=O)O)C(=O)Nc1cccc(S(=O)(=O)n2c(=O)[nH]c3cc(Cl)ccc3c2=O)c1 (stereo not shown) , what IC50 is on record?
-- reply 300

====

Measured half-life at 10 µM of individual entries
# Method Description: Test of stability in human plasma
# Details: pH 7.2

Worked examples follow.
{"Molecule": "O=C(O)C1Oc2ccc(S(=O)(=O)n3c(=O)[nH]c4cc(Cl)ccc4c3=O)cc2NC1=O (racemic)", "Endpoint Label": "half-life at 10 µM", "Reading": "> 4 h"}
{"Molecule": "Nc1cc(S(=O)(=O)n2c(=O)[nH]c3ccc(Cl)cc3c2=O)ccc1C(=O)O", "Endpoint Label": "half-life at 10 µM", "Reading": "1.23 h"}
{"Molecule": "O=c1[nH]c2cc(Cl)ccc2c(=O)n1S(=O)(=O)c1cccc(O)c1", "Endpoint Label": "half-life at 10 µM", "Reading": "1.3 h"}

Please examine the following record next.
-- ask For the molecule Nc1cccc(S(=O)(=O)n2c(=O)[nH]c3cc(Cl)ccc3c2=O)c1 , what half-life at 10 µM is on record?
-- reply 4.15 h

====

Measured half-life at 10 µM of individual entries
# Method Description: Test of stability in human plasma
# Details: pH 7.2
# unit: min | format: bare number

-- ask For the compound Nc1cc(S(=O)(=O)n2c(=O)[nH]c3cc(Cl)ccc3c2=O)ccc1Cl [Example 8] , what half-life at 10 µM is on record?
-- reply 29

-- ask For the compound CS(=O)(=O)O.Nc1cccc(S(=O)(=O)n2c(=O)[nH]c3cc(Cl)ccc3c2=O)c1 [Example 34] , what half-life at 10 µM is on record?
-- reply 709

-- ask For the compound COc1ccc2c(=O)n(S(=O)(=O)c3ccc(C(=O)O)c(N)c3)c(=O)[nH]c2c1 [Example 27] , what half-life at 10 µM is on record?
-- reply 263

-- ask For the compound Cc1ccc(S(=O)(=O)n2c(=O)[nH]c3cc(Cl)ccc3c2=O)cc1N [Example 10] , what half-life at 10 µM is on record?
-- reply 167

-- ask For the compound COc1ccc(S(=O)(=O)n2c(=O)[nH]c3cc(Cl)ccc3c2=O)cc1NC(C)=O [Example 22] , what half-life at 10 µM is on record?
-- reply 104

-- ask For the compound COc1ccc(S(=O)(=O)n2c(=O)[nH]c3cc(Cl)ccc3c2=O)cc1NS(C)(=O)=O [Example 24] , what half-life at 10 µM is on record?
-- reply 79

-- ask For the compound Nc1cc(S(=O)(=O)n2c(=O)[nH]c3cc(Cl)ccc3c2=O)ccc1C(=O)[O-].[Na+] [Example 18] , what half-life at 10 µM is on record?
-- reply 103

-- ask For the compound Nc1cc(S(=O)(=O)n2c(=O)[nH]c3cc(Cl)ccc3c2=O)ccc1C(=O)O [Example 17] , what half-life at 10 µM is on record?
-- reply 260

-- ask For the compound Nc1ccccc1S(=O)(=O)n1c(=O)[nH]c2cc(Cl)ccc2c1=O [Example 2] , what half-life at 10 µM is on record?
-- reply 175

These entries and their values trace back to patent US6867214B1.
